All values here come from paper PMC4115224.

Target: TATA-binding protein (TBP) (human, UniProt P20226 1-339)
Sequence (P20226 whole entry): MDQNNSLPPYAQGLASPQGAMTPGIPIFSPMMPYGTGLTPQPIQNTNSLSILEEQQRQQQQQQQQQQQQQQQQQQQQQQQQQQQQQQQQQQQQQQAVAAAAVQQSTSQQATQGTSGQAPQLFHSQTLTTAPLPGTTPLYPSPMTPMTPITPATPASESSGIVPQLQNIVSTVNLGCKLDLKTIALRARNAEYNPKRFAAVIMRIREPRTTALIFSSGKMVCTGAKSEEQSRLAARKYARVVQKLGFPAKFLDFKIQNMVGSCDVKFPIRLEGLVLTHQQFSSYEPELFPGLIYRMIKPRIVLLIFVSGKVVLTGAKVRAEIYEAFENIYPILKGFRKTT
Assay: stopped-flow FRET; kon (0.2 ± 0.1)e6 M-1 s-1; koff (8.9 ± 1.2)e-2 s-1; KA 2.3e6 M-1; 25 C; 25 C; 0.1 uM DNA duplex; TBP 0.1-2 uM (T allele) or 0.4-4 uM (G allele); buffer, salt and pH not given in the material
Conditions: protein: recombinant; label: Cy3/Cy5 FRET pair at the duplex ends
property: Kd (nM)

1) TPI TATA box, -24T>G SNP (G allele) (dsDNA) DNA 1: GCTCTATAGAAGTGG DNA 2: CCACTTCTATAGAGC
400
